Values from patent US10278957B2

MEASURED TARGET: δ-opioid receptor (DOR) (Homo sapiens)
Sequence (P41143 whole entry): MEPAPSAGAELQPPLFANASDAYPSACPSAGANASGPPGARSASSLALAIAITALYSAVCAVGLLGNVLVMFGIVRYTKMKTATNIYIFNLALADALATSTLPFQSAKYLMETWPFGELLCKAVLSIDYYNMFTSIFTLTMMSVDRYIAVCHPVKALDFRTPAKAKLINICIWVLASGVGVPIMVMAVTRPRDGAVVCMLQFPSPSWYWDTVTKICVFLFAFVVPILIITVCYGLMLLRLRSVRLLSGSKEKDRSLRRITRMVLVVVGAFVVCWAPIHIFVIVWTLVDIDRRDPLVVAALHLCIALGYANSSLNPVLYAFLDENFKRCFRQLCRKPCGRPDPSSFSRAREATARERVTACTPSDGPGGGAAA
TEST DETAILS: DOR agonist cAMP assay (HitHunter cAMP, forskolin-stimulated)
Square brackets hold non-standard residues; d marks the D form. Peptide text beside a SMILES is read from it. Dmt = Cc1cc(O)cc(C)c1C[C@H](N)C(=O)O; αMeF = C[C@](N)(Cc1ccccc1)C(=O)O; β3hF = N[C@H](CC(=O)O)Cc1ccccc1; Nle = CCCC[C@H](N)C(=O)O; Sar = CNCC(=O)O

[
  {
    "COMPOUND": "C[C@@H](NC(=O)[C@@H](N)Cc1c[nH]c2ccc(O)cc12)C(=O)NCC(=O)N[C@H](CC(=O)N(C)CC(N)=O)Cc1ccccc1",
    "MEASURED TARGET": "δ-opioid receptor (DOR) (Homo sapiens)",
    "EC50": "50 to 200 nM"
  },
  {
    "COMPOUND": "Cc1cc(O)cc(C)c1C[C@H](N)C(=O)N[C@H](CC(=O)O)C(=O)NCC(=O)N[C@H](CC(=O)N(C)[C@@H](Cc1c[nH]c2ccccc12)C(=O)O)Cc1ccccc1",
    "MEASURED TARGET": "δ-opioid receptor (DOR) (Homo sapiens)",
    "EC50": "< 1 nM"
  },
  {
    "COMPOUND": "Cc1cc(O)cc(C)c1C[C@H](N)C(=O)N[C@H](CCCNC(=N)N)C(=O)N[C@@H](CCc1ccccc1)C(=O)N(C)CCC(=O)O",
    "MEASURED TARGET": "δ-opioid receptor (DOR) (Homo sapiens)",
    "EC50": "< 1 nM"
  },
  {
    "COMPOUND": "Cc1cc(O)cc(C)c1C[C@H](N)C(=O)N[C@@H](C(=O)NCC(=O)N[C@H](CC(=O)N(C)[C@@H](C)C(=O)O)Cc1ccccc1)[C@H](C)O",
    "MEASURED TARGET": "δ-opioid receptor (DOR) (Homo sapiens)",
    "EC50": "< 1 nM"
  },
  {
    "COMPOUND": "Cc1cc(O)cc(C)c1C[C@H](N)C(=O)NCC(=O)NCC(=O)N[C@H](CC(=O)N(C)CC(N)=O)Cc1ccccc1 [compound 81] (H-[Dmt]GG[β3hF][Sar]-NH2)",
    "MEASURED TARGET": "δ-opioid receptor (DOR) (Homo sapiens)",
    "EC50": "< 1 nM"
  },
  {
    "COMPOUND": "Cc1cc(O)cc(C)c1C[C@H](N)C(=O)N[C@H](CC(=O)O)C(=O)NCC(=O)N[C@H](CC(=O)N(C)[C@@H](CC(C)C)C(=O)O)Cc1ccccc1",
    "MEASURED TARGET": "δ-opioid receptor (DOR) (Homo sapiens)",
    "EC50": "< 1 nM"
  },
  {
    "COMPOUND": "Cc1cc(O)cc(C)c1C[C@H](N)C(=O)N[C@H](C)C(=O)NCC(=O)N[C@H](CC(=O)N(C)[C@H](C(=O)O)C(C)C)Cc1ccccc1",
    "MEASURED TARGET": "δ-opioid receptor (DOR) (Homo sapiens)",
    "EC50": "< 1 nM"
  },
  {
    "COMPOUND": "CC(=O)N[C@@H](Cc1c(C)cc(O)cc1C)C(=O)N[C@H](C)C(=O)NCC(=O)N[C@H](CC(=O)N(C)CC(N)=O)Cc1ccccc1",
    "MEASURED TARGET": "δ-opioid receptor (DOR) (Homo sapiens)",
    "EC50": "10 to 50 nM"
  },
  {
    "COMPOUND": "Cc1cc(O)cc(C)c1C[C@H](N)C(=O)N[C@H](C)C(=O)N(C)CC(=O)N[C@H](CC(=O)N(C)CC(N)=O)Cc1ccccc1",
    "MEASURED TARGET": "δ-opioid receptor (DOR) (Homo sapiens)",
    "EC50": "50 to 200 nM"
  },
  {
    "COMPOUND": "Cc1cc(C(N)=O)cc(C)c1C[C@H](N)C(=O)N[C@H](C)C(=O)NCC(=O)N[C@H](CC(=O)N(C)CC(=O)O)Cc1ccccc1",
    "MEASURED TARGET": "δ-opioid receptor (DOR) (Homo sapiens)",
    "EC50": "< 1 nM"
  },
  {
    "COMPOUND": "CCCC[C@H](NC(=O)[C@H](Cc1ccccc1)NC(=O)[C@@H](CCCN=C(N)N)NC(=O)[C@@H](N)Cc1c(C)cc(O)cc1C)C(N)=O [compound 28] (H-[Dmt][dR]F[Nle]-NH2)",
    "MEASURED TARGET": "δ-opioid receptor (DOR) (Homo sapiens)",
    "EC50": "10 to 50 nM"
  },
  {
    "COMPOUND": "Cc1cc(C(N)=O)cc(C)c1C[C@H](N)C(=O)N1Cc2ccccc2C[C@H]1C(=O)NCC(=O)N[C@H](CC(=O)N(C)CC(N)=O)Cc1ccccc1",
    "MEASURED TARGET": "δ-opioid receptor (DOR) (Homo sapiens)",
    "EC50": "50 to 200 nM"
  },
  {
    "COMPOUND": "Cc1cc(O)cc(C)c1C[C@H](N)C(=O)N[C@H](C)C(=O)NCC(=O)N[C@@H](Cc1ccc(Cl)c(Cl)c1)C(=O)NCC(N)=O",
    "MEASURED TARGET": "δ-opioid receptor (DOR) (Homo sapiens)",
    "EC50": "< 1 nM"
  },
  {
    "COMPOUND": "Cc1cc(O)cc(C)c1C[C@H](N)C(=O)N[C@H](CCCNC(=N)N)C(=O)N[C@@H](Cc1ccccc1)C(=O)N[C@@](C)(Cc1ccccc1)C(N)=O [compound 15] (H-[Dmt][dR]F[αMeF]-NH2)",
    "MEASURED TARGET": "δ-opioid receptor (DOR) (Homo sapiens)",
    "EC50": "1 to 10 nM"
  },
  {
    "COMPOUND": "Cc1cc(O)cc(C)c1C[C@H](N)C(=O)N[C@H](C)C(=O)NCC(=O)N[C@@H](CCc1ccccc1)C(=O)N(C)CC(N)=O",
    "MEASURED TARGET": "δ-opioid receptor (DOR) (Homo sapiens)",
    "EC50": "1 to 10 nM"
  },
  {
    "COMPOUND": "Cc1cc(C(N)=O)cc(C)c1C[C@H](N)C(=O)N[C@H](C)C(=O)NCC(=O)N[C@H](CC(=O)N(C)[C@@H](Cc1ccccc1)C(=O)O)Cc1ccccc1",
    "MEASURED TARGET": "δ-opioid receptor (DOR) (Homo sapiens)",
    "EC50": "1 to 10 nM"
  },
  {
    "COMPOUND": "C[C@@H](NC(=O)[C@@H](N)Cc1ccc(O)c(F)c1)C(=O)NCC(=O)N[C@H](CC(=O)N(C)CC(N)=O)Cc1ccccc1",
    "MEASURED TARGET": "δ-opioid receptor (DOR) (Homo sapiens)",
    "EC50": "1 to 10 nM"
  },
  {
    "COMPOUND": "Cc1cc(C(N)=O)cc(C)c1C[C@H](N)C(=O)N[C@H](C)C(=O)NCC(=O)N[C@H](CC(=O)N(C)CC(N)=O)Cc1ccccc1",
    "MEASURED TARGET": "δ-opioid receptor (DOR) (Homo sapiens)",
    "EC50": "< 1 nM"
  },
  {
    "COMPOUND": "CC[C@H](C)[C@@H](C(=O)O)N(C)C(=O)C[C@H](Cc1ccccc1)NC(=O)CNC(=O)[C@@H](C)NC(=O)[C@@H](N)Cc1c(C)cc(C(N)=O)cc1C",
    "MEASURED TARGET": "δ-opioid receptor (DOR) (Homo sapiens)",
    "EC50": "1 to 10 nM"
  },
  {
    "COMPOUND": "C[C@@H](NC(=O)[C@@H](N)Cc1ccc(O)cc1)C(=O)NCC(=O)N[C@H](CC(=O)N(C)CC(N)=O)Cc1ccccc1",
    "MEASURED TARGET": "δ-opioid receptor (DOR) (Homo sapiens)",
    "EC50": "1 to 10 nM"
  },
  {
    "COMPOUND": "Cc1cc(O)cc(C)c1C[C@H](N)C(=O)N[C@H](C)C(=O)NCC(=O)N[C@@H](Cc1ccc(C#N)cc1)C(=O)NCC(N)=O",
    "MEASURED TARGET": "δ-opioid receptor (DOR) (Homo sapiens)",
    "EC50": "< 1 nM"
  },
  {
    "COMPOUND": "Cc1cc(O)cc(C)c1C[C@H](N)C(=O)N[C@H](CC(=O)O)C(=O)NCC(=O)N[C@H](CC(=O)N(C)CC(N)=O)Cc1ccccc1",
    "MEASURED TARGET": "δ-opioid receptor (DOR) (Homo sapiens)",
    "EC50": "< 1 nM"
  },
  {
    "COMPOUND": "CCC[C@@H](C(=O)O)N(C)C(=O)C[C@H](Cc1ccccc1)NC(=O)CNC(=O)[C@@H](CC(=O)O)NC(=O)[C@@H](N)Cc1c(C)cc(O)cc1C",
    "MEASURED TARGET": "δ-opioid receptor (DOR) (Homo sapiens)",
    "EC50": "< 1 nM"
  }
]
